Origin of values: paper PMC8809517

// values below are reported Kd
Molecular target: T1, GFP-9S library array, motif 4 ND N98D;D124E (synthetic construct, N98D;D124E)
T1 chain: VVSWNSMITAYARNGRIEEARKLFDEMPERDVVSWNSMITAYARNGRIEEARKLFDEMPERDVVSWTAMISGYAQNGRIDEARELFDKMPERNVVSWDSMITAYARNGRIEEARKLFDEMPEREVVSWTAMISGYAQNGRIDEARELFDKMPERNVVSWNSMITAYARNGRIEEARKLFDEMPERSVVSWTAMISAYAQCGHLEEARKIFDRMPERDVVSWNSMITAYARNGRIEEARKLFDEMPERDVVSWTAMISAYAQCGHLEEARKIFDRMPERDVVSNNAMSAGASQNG
Assay: high-throughput RNA pulldown from lysate on Ni-NTA beads; HRP: 50 mM Tris pH 8, 150 mM NaCl, 1 mM beta-mercaptoethanol, 50 ug/ml BSA, 3 ug/ml yeast RNA, 0.5% heparin; ITC and FP: Tris pH 8, 200 mM KCl, 5% glycerol; MST: 50 mM Tris pH 8, 200 mM NaCl, 1 mM DTT, BSA, heparin, 0.05% Tween 20
Details: tags: N-terminal His-eGFP; label: 5' Cy5
Numbers only here, please. The scale is nM.

binder	Kd, nM
AUUAGACGUGA (ssRNA) [Cy5-rpoA-G]	95.2

Let's switch to this binder now.
Prompt line: Any idea what Kd was measured for AUUACACGUGA (ssRNA) [Cy5-rpoA] ?
Response line: 124
